assay: small-molecule binders of probe aNOTCH3, primary screen, biochemical, small-molecule microarray, 635/667 nm fluorescence (AID 1120); details: higher = more signal;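 also: probe is a biotin-tagged antibody raised against NOTCH3 rather than NOTCH3 protein; score merges spot fluorescence near 667 nm with spot signal to noise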
Endpoint: composite z-score
Respond using a number only.

# annotated cases, reported composite z-score shown
Compound: CC(C)NC(=O)[C@@H]1c2ccccc2C(=O)N(Cc2ccccc2)[C@H]1c1ccc(CO)cc1
Readout Number: 0.0237

Compound: Cc1cc(C)cc(N2C(=O)CS(=O)(=O)C2c2cccc([N+](=O)[O-])c2)c1 (centres undefined)
Readout Number: 0.799

Compound: COCCOC(=O)N1C(=O)[C@@]2(c3ccccc31)[C@H](c1ccc(O)cc1)N1[C@H](c3ccccc3)[C@H](c3ccccc3)OC(=O)[C@H]1[C@@H]2C(=O)N1CCc2cc(OC)c(OC)cc2C1
Readout Number: 0.128

Compound: COC(=O)[C@@]1(Cc2ccccc2)N=C(c2ccc(OCCCO)cc2)O[C@H]1c1ccccc1N=[N+]=[N-]
Readout Number: 0.104

Compound: CC(C)(C)N1CC=CC23O[C@@H]4/C=C\CCCOC(=O)C4[C@H]2C(=O)N(CCO)[C@@H]3C1=O (some centres undefined)
Readout Number: -0.36

Asked: Answer with the recorded composite z-score for the compound listed here: Cc1ccc(S[C@]2(C(=O)O)CC(=O)N(C3Cc4ccccc4C3)[C@@H]2c2ccc(CO)cc2I)cc1
Given back: -0.0725

Asked: Answer with the recorded composite z-score for the compound listed here: [N-]=[N+]=NCc1ccccc1C[C@]1(C(=O)NCCN2CCOCC2)N=C(c2ccc(OCCCO)cc2)O[C@H]1c1ccccc1N=[N+]=[N-]
Given back: 0.356

Asked: Answer with the recorded composite z-score for the compound listed here: COC(=O)[C@@]1(Cc2ccc(OC)cc2)[C@H]2c3cc(C(=O)N4CCCC4)n(Cc4cc(F)cc5c4OCOC5)c3C[C@H]2CN1C(=O)c1ccccc1
Given back: 0.58

Asked: Answer with the recorded composite z-score for the compound listed here: CCOC(=O)C[C@H]1[C@H](OC(=O)c2ccc(-c3ccccc3)cc2)[C@@H](NC(=O)c2ccc(-c3ccccc3)cc2)c2cc(OCCCO)ccc2N1C(=O)Cc1ccc(OC)cc1
Given back: -0.0146

Asked: Answer with the recorded composite z-score for the compound listed here: Cc1ccccc1C(O)C1C=CC2C(=O)N(C)C(=O)C2N1N1CCCCC1 (centres undefined)
Given back: 0.36

Asked: Answer with the recorded composite z-score for the compound listed here: CCCCCN1CC=CC23O[C@@H]4/C=C\CCCOC(=O)C4[C@H]2C(=O)N(CCCCCCO)[C@@H]3C1=O (some centres undefined)
Given back: -0.262

Asked: Answer with the recorded composite z-score for the compound listed here: COCCOC(=O)N1C(=O)[C@@]2(c3cc(C#CCCO)ccc31)[C@H](c1ccc(O)cc1)N1[C@H](c3ccccc3)[C@H](c3ccccc3)OC(=O)[C@H]1[C@@H]2C(N)=O
Given back: -0.0967

Asked: Answer with the recorded composite z-score for the compound listed here: [N-]=[N+]=NCc1ccccc1C[C@@]1(C(=O)NCC(O)CO)N=C(c2ccc(OCCCO)cc2)O[C@@H]1c1ccccc1CN=[N+]=[N-] (some centres undefined)
Given back: 0.319

Asked: Answer with the recorded composite z-score for the compound listed here: C=CCOC(=O)[C@@H]1[C@H]2C(=O)O[C@H](c3ccccc3)[C@H](c3ccccc3)N2[C@H](c2ccc(OCCOC(=O)[C@@H]3C[C@@H]4C(=O)N[C@@H](Cc5ccccc5)C(=O)N4[C@@H]3c3cccc(OCCO)c3)cc2)[C@@]12C(=O)Nc1ccc(I)cc12
Given back: -0.0328
